The reported measurements were obtained from paper PMC4256047.

ASSAYED_SYSTEM: T1, human wt-ERβ LBD (estrogen receptor beta ligand-binding domain, amino acids 261-502) (human, UniProt Q92731 261-502)
T1 construct: Cloned into pET-32a; N-terminal thioredoxine-hexahistidine tag removed with TEV protease; not shown: thioredoxin, N-terminal, cleaved; His6, N-terminal, cleaved
T1 sequence (Q92731 261-502): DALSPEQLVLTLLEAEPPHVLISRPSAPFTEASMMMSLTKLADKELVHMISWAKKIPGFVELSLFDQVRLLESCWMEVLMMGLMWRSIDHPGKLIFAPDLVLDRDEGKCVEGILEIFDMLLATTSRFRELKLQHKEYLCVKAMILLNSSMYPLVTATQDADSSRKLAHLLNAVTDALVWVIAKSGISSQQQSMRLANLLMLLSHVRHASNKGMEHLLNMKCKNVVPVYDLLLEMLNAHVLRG
ASSAY_SUMMARY: fluorescence polarisation; fluorescence anisotropy; 4 nM fluorescein-SRC-1 NR2 peptide, LBD diluted 2-fold from 10 uM (ERα) or 20 uM (ERβ); with butylparaben at 20 uM (ERα) or 40 uM (ERβ); 20 mM Tris pH 8.0, 150 mM NaCl, 5 mM DTT, 10% glycerol
RUN_CONDITIONS: both partners purified
pKd: −log10 of the molar value. Where no end group is shown, it is not given here. fluorescein = fluorescein label on the N-terminus of the peptide

{"columns": ["BINDER", "pKd"],
 "data": [
  ["fluorescein-RHKILHRLLQEGS (also called SRC-1 NR2 peptide; fluorescein-labeled SRC-1 NR2 peptide; source: bought: EZbiolab) [fluorescein-RHKILHRLLQEGS peptide corresponding to the NR box 2-binding motif of SRC-1]", 5.95]
]}
